Decide using MDR1-MDCK efflux ratio alone. Strictly below 2: label 1. Equal to or above 2: label 0.

| compound | class-assignment |
| --- | --- |
| CC(C)(C(=O)c1ccccc1)/[N+]([O-])=C/c1ccc(F)cc1 | label 1 |
| Cc1cc(CNc2cc(C(=O)N(C)C)ccn2)sc1Br | label 1 |
| CCc1ccccc1NC(=O)Cn1nc(C)cc1C | label 1 |
| Cn1cc(-c2nnc(NCc3ccc4ccccc4c3)o2)cn1 | label 1 |
| COC1CCN(C(=O)Nc2cc(C(F)(F)F)cc(C(F)(F)F)c2)CC1 | label 1 |
| CCCc1ncncc1C(=O)NCc1noc(C2CC2)n1 | label 1 |
| Cc1cc(C)nc(Nc2ccc(C3CCCN(CC(=O)N4CCCC4)C3)nc2)n1 (stereo not drawn) | label 0 |
| CCCCc1nc2cc(/C=C/C(=O)NO)ccc2n1CCN(CC)CC | label 0 |
| CCCN(Cc1ccccc1)C(=O)CC1(N)CCC1 | label 0 |
| COc1ccc(CNc2ncc(-c3ccc4c(c3)OCO4)n2C)c(OC)c1 | label 1 |
| Cc1cc(CN2CC(O)(CC#N)C2)ccc1F | label 1 |
| Cc1cc(NCc2ccnc(N3CCCC3)c2)c2ccccc2n1 | label 0 |
| Cc1nnnn1CCN(C)c1ccccc1 | label 1 |
| Cc1cn2cc(C(=O)N(C)CCO)cc(N[C@@H]3CCOc4cccc(C)c43)c2n1 | label 0 |
| N#Cc1cc(F)c(N2CCN(CCO)CC2)c(F)c1 | label 1 |
| CC(C)c1nnc(CNC(=O)C2(C)CCC2)n1C | label 0 |
| O=C(/C=C/N1C[C@H]2C[C@@H]1CN2c1ccccn1)c1ccccc1O | label 1 |
| CCc1nnc(NC(=O)Cc2cccc(F)c2)s1 | label 1 |
| Cc1[nH]c2ccc(Cl)cc2c1CC(=O)N1CCC(Cc2ncncc2C(N)=O)CC1 | label 0 |
| CCC[C@@H]1C[C@@H](C(=O)N[C@@H]([C@H]2O[C@H](SC)[C@H](O)[C@@H](O)[C@@H]2O)[C@@H](C)O)N(C)C1 | label 0 |
| CC1(C)Oc2ccc(Cl)cc2[C@@H]2O[C@@H]3CCNC[C@@H]3C[C@H]21 | label 0 |
| c1ccc(-c2n[nH]c(C3CCN(c4ccccn4)CC3)n2)cc1 | label 1 |
| COCc1noc(-c2ccc(-c3cc(C)cc(C)c3)nc2)n1 | label 1 |

---

In this section we review reported intrinsic clearance, rat liver microsomes values for a set of compounds.
measured-endpoint: intrinsic clearance, rat liver microsomes

| input-smiles | value-reported |
| --- | --- |
| Cc1nccn1-c1ccc(F)cc1CNC(=O)C(C)C | 57.2 mL/min/kg |
| c1cc(-c2nnc(NCc3cncs3)o2)ccn1 | 91.4 mL/min/kg |
| CC(C)Cc1ccccc1CNCc1ccc2[nH]cnc2c1 | 765 mL/min/kg |
| Cc1ccc(C(=O)NC2CCN(CC#N)CC2)cc1Br | 97.6 mL/min/kg |
| O=C(c1ccc(NS(=O)(=O)c2cccc3cnccc23)cc1)N1CCCC1 | 562 mL/min/kg |
| Cc1ccnc(N2CC(O)(c3ccc(F)cc3)C2)c1C#N | 3630 mL/min/kg |
| CCCn1cc(C(=O)N2CCC(c3n[nH]cc3C(=O)N(C)Cc3ccccc3)CC2)cn1 | 561 mL/min/kg |
| CNC(=O)C1CCN(Cc2ncc(-c3ccc(F)cc3)o2)CC1 | 11.2 mL/min/kg |
| CSCC(=O)N1CCc2[nH]nc(-c3cccc(F)c3)c2C1 | 960 mL/min/kg |
| CC(C)(C)c1nc(Cn2nnc3ccccc3c2=O)no1 | 119 mL/min/kg |
| C=CC(=O)N1CCC(CNc2ncnc(N)c2-c2ccc(Oc3ccccc3)cc2)CC1 | 1450 mL/min/kg |

---

Decide using intrinsic clearance, rat liver microsomes alone. Strictly below 500 mL/min/kg: Criterion met. Equal to or above 500 mL/min/kg: Criterion not met.

| molecule | class-assignment |
| --- | --- |
| CCCCc1nc2cc(/C=C/C(=O)NO)ccc2n1CCN(CC)CC | Criterion met |
| CCNc1cc2c(nn1)CCN(C(=O)Cn1ccc3ccccc31)C2 | Criterion met |
| CCCCOc1nc(N)c2c(n1)N(Cc1cccc(CN3CCCC3)c1)CC(=O)N2 | Criterion not met |
| Cc1noc(C)c1CCC(=O)Nc1cccnc1 | Criterion met |
| Cc1nc(C)c(C(=O)Nc2ccc3ncccc3c2)o1 | Criterion met |
| O=C(NCCNc1ncccc1C(F)(F)F)c1cnc2ccccn2c1=O | Criterion not met |
| CNC(=O)c1ccc2c(c1)CCO[C@H]2CCN1CCN(c2ccc(C(N)=O)cc2)CC1 | Criterion met |
| O=C(Cc1cccc2ccccc12)NCc1nnc2n1-c1ccccc1CC2 | Criterion not met |
| Cc1ccc2occ(CN3C[C@H]4CCCN4C[C@H]3C)c(=O)c2c1 | Criterion not met |
| NC(=O)c1ccccc1NC(=O)CN1CCCC(c2nc3ccccc3o2)C1 (stereo unspecified) | Criterion not met |

---

In this section we review reported MDR1-MDCK efflux ratio values for a set of compounds.

| input-smiles | MDR1-MDCK efflux ratio |
| --- | --- |
| COc1ccc(Cc2ncnn2-c2ccc3c(c2)OCO3)c(OC)c1 | 0.614 |
| Fc1ccc(-c2ccc3c(c2)[nH]c2ccncc23)cn1 | 0.469 |
| O=C(NCc1cccnc1)c1sccc1-c1ccccc1 | 1.1 |
| CCN1CCN(C(=O)CNc2ncnc3onc(C)c23)CC1 | 3.68 |
| CN(C)C1(CNC(=O)N2CCCC(C)(C)CC2)CCOCC1 | 16.5 |
| CCCCc1c(C)[nH]c2nc(N(Cc3cccs3)C(C)=O)nn2c1=O | 26 |

---

measured-endpoint: intrinsic clearance, human liver microsomes (mL/min/kg)

| molecule | readout-qualifier | value-reported |
| --- | --- | --- |
| Cc1ccccc1C(=O)Nc1nc(C)c(C)s1 | = | 90 |
| OCc1ccc(Cn2cc(-c3cc(F)ccc3-n3cccn3)nn2)cc1 | = | 15.5 |
| Cc1ccc(-c2nc(NCc3ccco3)ncc2-c2cc(C)no2)cn1 | = | 87.5 |
| O=C(O)c1ccccc1-n1cnc(CN2CCCC2)c1 | ≤ | 4.74 |
| CCCN1CCCN(C(=O)c2nc3ccccc3[nH]2)CC1 | = | 19.2 |
| O=C(Nc1cccc(-c2cnco2)c1)C1(c2cccc(F)c2)CCOCC1 | = | 65.8 |
| Cc1noc(C)c1CS(=O)(=O)C1CCCc2ccccc21 (centres undefined) | = | 192 |
| Cc1cnc(-c2nc(NCc3cccnc3)ncc2-c2cc(C)no2)cn1 | = | 17.1 |
| COCC(C)(C)C(=O)N1CCCC2(CCNCC2)CC1 | ≤ | 4.74 |
| Cc1oc(C)c(C(=O)N2CCNC(=O)C2)c1Br | ≤ | 4.74 |
| CC1(C)[C@@H]2C[C@H]1[C@@]1(O)[C@@H](C2)Oc2c(ccc(O)c2C(=O)NCCc2ccccn2)[C@@H]1O | = | 555 |
| CC(=O)Nc1ccccc1CN1CCC(c2nnc3ccccn23)CC1 | = | 10 |
| Cc1n[nH]c(C2CCN(C(=O)NC3CCN(c4ccc(F)cc4)CC3)CC2)n1 | ≤ | 4.74 |
| Cc1nn(Cc2cccc(Br)c2)c(C)c1C(=O)O | ≤ | 4.74 |
| Fc1ccc(CN2CCCN(c3ccc4nnnn4n3)CC2)cc1 | = | 31.9 |
| CN(CCOc1ccccc1)CC(=O)NCCc1ccccc1 | = | 267 |
| CC(C)N1CCC(O)(c2ccccc2F)CC1 | ≤ | 4.74 |
| NCCOc1cccc(CC(=O)N2CCCN(C(=O)C3CCC3)CC2)c1 | ≤ | 4.74 |
| Cc1ccc2nc(C)c(C(=O)NOCc3ccccc3)cc2c1 | = | 19.3 |
| CC1=C(Br)CN(CCc2nc3ccccc3c(=O)[nH]2)CC1 | = | 133 |
| Cc1sc(C)c(C(=O)NC2(c3ccc(C(=O)O)cc3)CC2)c1Cc1ccc(C(F)(F)F)cc1 | ≤ | 4.74 |
| CN(CCCC1CCCC1)Cc1cc(=O)[nH]c(=O)[nH]1 | = | 7.57 |
| COc1ccccc1/C=C/CN1C[C@H]2CCCN2C[C@@H]1C | = | 16.8 |
| CC(C)c1noc(CN(C)C2CCCC2)n1 | = | 15.9 |

---

# if value of intrinsic clearance, rat liver microsomes reaches 200 mL/min/kg, tag yes (1); if it stays below, tag no (0)

| input-smiles | class-assignment |
| --- | --- |
| Cc1cc(CNC(=O)N(C)Cc2c(C)nn(C)c2C)cnc1C | no (0) |
| CC(=O)Nc1ccc2nc(N3CCOCC3)sc2c1 | no (0) |
| NCCc1cnn(Cc2ccccc2)c1 | no (0) |
| CCCC(=O)Nc1cnc(N2CCN(C)CC2)nc1 | no (0) |
| C#CCN1CCC(c2nc(Cc3noc(C)n3)no2)CC1 | no (0) |
| COc1cc2nc(N)sc2cc1OC | no (0) |
| Cc1ccc(S(=O)(=O)N2CCC[C@H](C(=O)NC3CCOCC3)C2)cc1 | yes (1) |
| CS(=O)(=O)NC[C@H]1CC[C@H](Nc2nc3c(s2)CCSc2ccccc2-3)CC1 | yes (1) |
| O=C(Nc1cncc2ccccc12)c1ncccn1 | no (0) |
| Cc1noc(C)c1CC(=O)N1CCc2[nH]c3ccc(Br)cc3c2C1 | yes (1) |
| Cn1cc(NC(=O)c2cn(Cc3ccccc3)nn2)cn1 | no (0) |
| NC(=O)COc1ncnc2ccccc12 | no (0) |
| Cc1ccc(CCNc2nc(C)cc(C)n2)cn1 | no (0) |
| Cc1ccc(CN(C)C(=O)c2cn(Cc3ccccc3F)nn2)cc1 | yes (1) |
| CC(C)c1nc(NCc2cccnc2)n(C)n1 | no (0) |
| O=C(C1CC1)N1CC[C@@H](Cc2n[nH]c(=O)n2-c2ccc(-c3ccc4occc4c3)cc2)C1 | no (0) |
| CC(C)(C)C(=O)N1CCC(CN2CCCC[C@@H]2CO)CC1 | no (0) |
| C[C@H]1CC[C@H](n2c3cnccc3c3cnc(Nc4ccc5c(n4)CCN(C(=O)CO)C5)nc32)CC1 | yes (1) |
| CC(C)C(=O)Nc1ncn(Cc2cccnc2)n1 | no (0) |
| Nc1ccccc1-c1nc(C2CCCCCC2)no1 | yes (1) |
| COc1ccccc1/C=C/CN1CCCC2(C1)OCCO2 | yes (1) |
| CCc1ccc(S(=O)(=O)NCc2ccnc(N3CCCC3)n2)cc1 | yes (1) |
| Cc1ccc(NC(=O)CN(C)C(=O)c2ccccc2F)nc1 | no (0) |
| CCC(CC)NC(=O)c1ccc2ncsc2c1 | no (0) |
| c1ccc(-c2nccc(NCc3nnc4n3CCCCC4)n2)cc1 | yes (1) |
